Record form. Attribute: GI50. Fill in for each entry.
Test system: OVCAR-4
Test: NCI tumour cell line growth inhibition, 48 h
Calls of active or inactive are those of the source. Cut-off read from the data, not from the text of the source: active = GI50 up to about 1.1 µM and inactive = higher. Residues, ends and D or L forms follow the SMILES beside them. *: point of attachment. Boc = CC(C)(C)OC(=O)*; OBn = c1ccc(CO*)cc1

GET /value?item= COC1C(OC(=O)/C=C/C=C/C=C/C=C/C(=O)O)CCC2(CO2)C1C1(C)OC1CC=C(C)C (stereo not given) &field=GI50 returns 21.1 µM (inactive)

GET /value?item= CC(=O)OC/C=C(/C=C/CNC1CCCCC1)OC(C)=O &field=GI50 returns 20.8 µM (inactive)

GET /value?item= CCCCCCc1cc(C=O)sc1-c1ccc(-c2sc(-c3ccc(-c4ccc(-c5cc(CCCCCC)c(-c6ccc(-c7sc(C=O)cc7CCCCCC)s6)s5)s4)s3)cc2CCCCCC)s1 &field=GI50 returns > 100 µM (inactive)

GET /value?item= CC(C)C(NC(=O)CNC(=O)C1CCCN1C(=O)C(NC(=O)OC(C)(C)C)C(C)C)C(=O)NCC(=O)OCc1ccccc1 (stereo not given) (Boc-VPGVG-OBn; configuration not given here) &field=GI50 returns > 100 µM (inactive)

GET /value?item= N#Cc1cc([N+](=O)[O-])ccc1NC(=O)C(F)(F)F &field=GI50 returns > 100 µM (inactive)

====

Test system: OVCAR-5
Experiment: NCI tumour cell line growth inhibition, 48 h
The source made the active and inactive calls. Rule as the data show it: active = GI50 up to about 1.1 µM and inactive = higher.
// allowed return values: true (1) = active, false (0) = inactive

Outcome? Cc1cc(C)n(-c2c(O)ccc(O)c2-n2nc(C)cc2C)n1
false (0)

Outcome? CC(C)(C)OC(=O)n1c(Cl)c(C=O)c2ccccc21
false (0)

Outcome? O=[N+]([O-])c1ccc(CSc2nn(Cc3ccc([N+](=O)[O-])cc3)cc3ncnc2-3)cc1
false (0)

Outcome? O=C(/N=C1/OC(CN2CCOCC2)CN1C(=O)Nc1ccccc1)Nc1ccccc1 (configuration not stated)
false (0)

Outcome? C=C(CCC(C)C1CCC2C3=C(C(=O)CC21C)C1(C)CCC(=O)[C@@H](C)C1CC3=O)C(C)C(=O)O (some centres not stated)
false (0)

Outcome? Cc1n[nH]c(=O)n1N1C(=O)c2ccccc2C1=O
false (0)

Outcome? N#Cc1c(-c2ccc(Cl)cc2)[nH]c(=O)n(C2OC(CO)C(O)C(O)C2O)c1=O (configuration not stated)
false (0)

Outcome? OC1(c2ccccc2)CCN(Cc2c[nH]c3ccccc23)CC1
false (0)

Outcome? CN(C)CCN1Nc2c3ccccc3nc3c(C(=O)NCCCN(C)CCCNC(=O)c4ccc5c6c(c7ccccc7nc46)NN5CCN(C)C)ccc1c23
true (1)

Outcome? CCCCCCCCCCCNC=O
false (0)

Outcome? CCN(CC)CCn1ccc(=O)c2cc3c(=O)ccn(CCN(CC)CC)c3c(C)c21
false (0)

Outcome? CSc1c(C#N)c(N)nc2c(/N=N\c3ccc(Br)cc3)c(N)nn12
false (0)

Outcome? COCn1cnc2c(=O)n(-c3ccc(C)cc3)c(=S)n(-c3ccc(C)cc3)c21
false (0)

Outcome? CC(C)(C)c1cc(-c2cc(C(C)(C)C)n(-c3ccccc3)n2)nn1-c1ccccc1
false (0)

Outcome? CCOP(=O)(C/C(O)=C1\C(=O)C(CCCNC(=O)OC(C)(C)C)N(Cc2ccc(OC)c(OC)c2)C1=O)OCC (configuration not stated)
false (0)

Outcome? CCN(CC)C(=S)N/N=C(/C)c1cccc(/C(C)=N\NC(=S)N(CC)CC)n1
false (0)

Outcome? c1ccc(COc2nc3cc(C45CC6CC(CC(C6)C4)C5)ccc3[nH]2)cc1
false (0)
